These measurements were taken from patent US6914045B2.

For each of the molecules below, state its MIC Enterococcus faecalis (ATCC 29212).
# System: Enterococcus sp.
# assay: in vitro antibacterial evaluation, MIC by broth dilution
# Type: cell-based
# experimental conditions: broth dilution, 18 hours at 35° C.; strain ATCC 29212
A number alone suffices; assume µg/mL.

Record lookup: for Enterococcus sp., what MIC Enterococcus faecalis (ATCC 29212) belongs to CC(c1ccccc1)C1NC(=O)CNC(=O)C(CO)NC(=O)C(C(O)C2CNC(=N)N2C2OC(CO)C(O)C(O)C2O)NC(=O)C(C(O)C2CNC(=N)N2)NC(=O)C(Cc2ccc(OC3OC(CO)C(OC4OC(CO)C(O)C5OC(c6ccccc6)OC45)C(O)C3O)cc2)NC1=O (single isomer, unassigned) [Example 104b] ? 0.5

Record: CC(c1ccccc1)C1NC(=O)CNC(=O)C(CO)NC(=O)C(C(O)C2CNC(=N)N2C2OC(CO)C(O)C(O)C2O)NC(=O)C(C(O)C2CNC(=N)N2)NC(=O)C(Cc2ccc(OC3OC(CO)C(OC4OC(COC(=O)OCc5ccccc5)C(O)C(O)C4O)C(O)C3O)cc2)NC1=O (stereo not shown) [Example 101a] 16

Would you kindly repeat that for CC(C)CC(=O)OC1C(O)C(CO)OC(OC2C(CO)OC(Oc3ccc(CC4NC(=O)C(C(C)c5cccs5)NC(=O)CNC(=O)C(CO)NC(=O)C(C(O)C5CNC(=N)N5C5OC(CO)C(O)C(O)C5O)NC(=O)C(C(O)C5CNC(=N)N5)NC4=O)cc3)C(O)C2O)C1O (stereo not shown) [Example 265b] ? 64

---

# Test system: Enterococcus sp.
# assay: in vitro antibacterial evaluation, MIC by broth dilution
# Type: cell-based
# experimental conditions: strain GC 4558; broth dilution, 18 hours at 35° C.
Would you kindly list MIC Enterococcus avium (GC 4558) for each of these compounds?
Your answer should be a plain number; it is taken to be in µg/mL.

Which value of MIC Enterococcus avium (GC 4558) has been reported for CC(C)=CCOc1cccc(C2OCC3OC(OC4C(CO)OC(Oc5ccc(CC6NC(=O)C(C(C)c7ccccc7)NC(=O)CNC(=O)C(CO)NC(=O)C(C(O)C7CNC(=N)N7C7OC(CO)C(O)C(O)C7O)NC(=O)C(C(O)C7CNC(=N)N7)NC6=O)cc5)C(O)C4O)C(O)C(O)C3O2)c1 (stereo not shown) [Example 165] in the records? 16

// query: CC(c1ccccc1)C1NC(=O)CNC(=O)C(CO)NC(=O)C(C(O)C2CNC(=N)N2C2OC(CO)C(O)C(O)C2O)NC(=O)C(C(O)C2CNC(=N)N2)NC(=O)C(Cc2ccc(OC3OC(CO)C(OC4OC(CO)C(O)C5OC(c6ccc(-c7ccsc7)cc6)OC45)C(O)C3O)cc2)NC1=O (stereo not shown) [Example 164a] 8

CC(c1ccccc1)C1NC(=O)CNC(=O)C(CO)NC(=O)C(C(O)C2CNC(=N)N2C2OC(CO)C(O)C(O)C2O)NC(=O)C(C(O)C2CNC(=N)N2)NC(=O)C(Cc2ccc(O)c(N(C)C)c2)NC1=O (stereo not shown) [Example 12] ? 128

Then this compound: CC(c1ccccc1)C1NC(=O)CNC(=O)C(CO)NC(=O)C(CC2CNC(=N)N2C2OC(CO)C(O)C(O)C2O)NC(=O)C(CC2CNC(=N)N2)NC(=O)C(Cc2ccc3oc(-c4ccc5c(c4)Cc4ccccc4-5)nc3c2)NC1=O (stereo not shown) [Example 42] 4

---

# Test system: Staphylococcus sp.
# assay: in vitro antibacterial evaluation, MIC by broth dilution
# Assay type: cell-based
# experimental conditions: broth dilution, 18 hours at 35° C.
property label: MIC Coagulase Negative Staphylococcus (GC 4549) (µg/mL)
Report as a plain number; the unit µg/mL is understood.

Would you mind telling me what MIC Coagulase Negative Staphylococcus (GC 4549) value was observed for CC(C)CC(=O)OC1C(OC2C(CO)OC(Oc3ccc(CC4NC(=O)C(C(C)c5ccc(F)cc5)NC(=O)CNC(=O)C(CO)NC(=O)C(C(O)C5CNC(=N)N5C5OC(CO)C(O)C(O)C5O)NC(=O)C(C(O)C5CNC(=N)N5)NC4=O)cc3)C(O)C2O)OC(CO)C(O)C1O (stereo not shown) [Example 261b] ? 4

What about CC(c1ccccc1)C1NC(=O)CNC(=O)C(CO)NC(=O)C(C(O)C2CNC(=N)N2C2OC(CO)C(O)C(O)C2O)NC(=O)C(C(O)C2CNC(=N)N2)NC(=O)C(Cc2ccc(OC3OC(CO)C(OC4OC(CO)C(O)C5OC(c6ccccc6)OC45)C(O)C3O)cc2)NC1=O (single isomer, unassigned) [Example 104b] ? 4

Another molecule: COc1ccc(COCC2OC(OC3C(CO)OC(Oc4ccc(CC5NC(=O)C(C(C)c6ccccc6)NC(=O)CNC(=O)C(CO)NC(=O)C(C(O)C6CNC(=N)N6C6OC(CO)C(O)C(O)C6O)NC(=O)C(C(O)C6CNC(=N)N6)NC5=O)cc4)C(O)C3O)C(O)C(O)C2O)cc1 (stereo not shown) [Example 232] 1

What do you get for COc1ccc(CC2OCC3OC(OC4C(CO)OC(Oc5ccc(CC6NC(=O)C(C(C)c7ccccc7)NC(=O)CNC(=O)C(CO)NC(=O)C(C(O)C7CNC(=N)N7C7OC(CO)C(O)C(O)C7O)NC(=O)C(C(O)C7CNC(=N)N7)NC6=O)cc5)C(O)C4O)C(O)C(O)C3O2)cc1 (stereo not shown) [Example 103] ? 1

Request: CC(c1ccccc1)C1NC(=O)CNC(=O)C(CO)NC(=O)C(C(O)C2CNC(=N)N2C2OC(CO)C(O)C(O)C2O)NC(=O)C(C(O)C2CNC(=N)N2)NC(=O)C(Cc2ccc(OC3OC(CO)C(OC4OC5COC(C6CCCC6)OC5C(O)C4O)C(O)C3O)cc2)NC1=O (stereo not shown) [Example 117] 1

---

# assay: anatomic pathology (histopathology of heart and kidney) in mice
# Format: in vivo
# experimental conditions: CD-1 mice, 20 mg/kg intravenously daily for 9 days, necropsy day 10, microscopic histopathology
Numbered stars: 1 amine (or outer) side, 2 acyl side, 3 side chain; on linkers, the order of the positions; unused ones are H or OH. Square brackets hold non-standard residues; d marks the D form. Peptide text beside a SMILES is read from it. * marks the point of attachment. ξ: configuration not given here. X1 = N=C1NCC(C(O)C(N[*:1])C(=O)[*:2])N1C1OC(CO)C(O)C(O)C1O; ξEnduracididine(βξ-OH,4'ξ) = N=C1NCC(C(O)C(N)C(=O)O)N1; X2 = OCC1OC(OC2C(CO)OC(*)C(O)C2O)C(O)C(O)C1O; Cha = N[CH](CC1CCCCC1)C(=O)O
property label: Anatomical Pathology (Day 10), Kidney

| molecule | Anatomical Pathology (Day 10), Kidney |
| --- | --- |
| CC(c1ccccc1)C1NC(=O)CNC(=O)C(CO)NC(=O)C(C(O)C2CN(CCCCCCCCCCCCO)C(=N)N2C2OC(CO)C(O)C(O)C2O)NC(=O)C(C(O)C2CNC(=N)N2)NC(=O)C(Cc2ccc(OC3OC(CO)C(OC4OC(CO)C(O)C(O)C4O)C(O)C3O)cc2)NC1=O (stereo not drawn) [Example 61] | +++ |
| CC(c1ccccc1)C1NC(=O)CNC(=O)C(CO)NC(=O)C(CC2CNC(=N)N2C2OC(CO)C(O)C(O)C2O)NC(=O)C(CC2CNC(=N)N2)NC(=O)C(Cc2ccc(OC3OC(CO)C(OC4OC(CO)C(O)C(O)C4O)C(O)C3O)cc2)NC1=O (stereo not drawn) [Example 277a] | ++ |
| N=C1NCC(C(O)C2NC(=O)[C@H](C(O)C3CNC(=N)N3)NC(=O)C(Cc3ccc(O)cc3)NC(=O)[C@H](Cc3ccccc3)NC(=O)CNC(=O)[C@H](CO)NC2=O)N1 (stereo in doubt) [Example 280a] | ++ |
| CC(c1ccccc1)C1NC(=O)CNC(=O)C(CO)NC(=O)C(C(O)C2CN(Cc3ccc(-c4ccccc4)cc3)C(=N)N2C2OC(CO)C(O)C(O)C2O)NC(=O)C(C(O)C2CNC(=NCc3ccc(-c4ccccc4)cc3)N2Cc2ccc(-c3ccccc3)cc2)NC(=O)C(Cc2ccc(OC3OC(CO)C(OC4OC(CO)C(O)C(O)C4O)C(O)C3O)cc2)NC1=O (stereo not drawn) [Example 66] | 0 |
| CN=C1N(C)CC(CC2NC(=O)C(Cc3ccc(OC4OC(CO)C(OC5OC(CO)C(O)C(O)C5O)C(O)C4O)cc3)NC(=O)C(C(C)c3ccccc3)NC(=O)CNC(=O)C(CO)NC(=O)C(CC3CN(C)C(=NC)N3C3OC(CO)C(O)C(O)C3O)NC2=O)N1C (stereo not drawn) [Example 74] | 0 |

Then this molecule:
Find the recorded Anatomical Pathology (Day 10), Kidney belonging to N=C1NCC(C(O)C2NC(=O)C(Cc3ccc(OC4OC(CO)C(OC5OC(CO)C(O)C(O)C5O)C(O)C4O)cc3)NC(=O)C(CC3CCCCC3)NC(=O)CNC(=O)C(CO)NC(=O)C(C(O)C3CNC(=N)N3C3OC(CO)C(O)C(O)C3O)NC2=O)N1 (stereo not drawn) [Example 263] (cyclo(G[Cha]Y(X2)[ξEnduracididine(βξ-OH,4'ξ)][X1]S); configuration not given here) and report it. ++
